These entries and their values trace back to patent US20240216357A1.

Target entity: voltage-gated potassium ion channel hERG (Homo sapiens (Human))
Assay name: hERG inhibition test (manual patch-clamp)
Run conditions: read-out: hERG IC50; manual patch-clamp
Where a name gives a salt, the structure may show the parent alone.
The threshold is 6 µM. Values of IC50 beneath it are tagged MET; values meeting or exceeding it are tagged NOT MET.

CC(C)(O)Cc1ccc(-c2c(-c3ccc(C#N)c(F)c3)nc(N3CCC(N)CC3)n3ccnc23)c(F)c1 [Example 132, hydrochloride] :: NOT MET
CS(=O)(=O)N1CCN(C(=O)c2cc(CN[C@@H]3C[C@H]3c3ccc(F)cc3)nc(-c3ccc(N4CCOCC4)cc3)n2)CC1 :: NOT MET
N#Cc1ccc(-c2nc(N3CCC(N)CC3)n3ccnc3c2-c2ccc(N3CCOCC3)cc2)cc1F :: NOT MET

Strictly below 6 µM: is that where IC50 of Cc1ccc(-c2c(-c3ccc(C#N)c(F)c3)nc(N3CCC(N)CC3)n3ccnc23)cc1O [Example 136, hydrochloride] sits?
NOT MET

Strictly below 6 µM: is that where IC50 of Cc1ccc(-c2nc(CN[C@@H]3C[C@H]3c3ccc(F)cc3)cc(C(=O)NC3CCOCC3)n2)cc1O sits?
MET

Strictly below 6 µM: is that where IC50 of COc1ccc(-c2cnc(N3CCC(N)CC3)c(C#N)c2-c2ccc(C#N)c(F)c2)cc1O [Example 66, hydrochloride] sits?
NOT MET

Strictly below 6 µM: is that where IC50 of COc1ccc(-c2c(OC3CCCC3)cc(N3CCC(N)CC3)nc2-c2ccc(C#N)c(F)c2)cc1O sits?
MET

Strictly below 6 µM: is that where IC50 of COc1ccc(-c2nc(CN[C@@H]3C[C@H]3c3ccc(F)cc3)cc(C(=O)N3CCN(S(C)(=O)=O)CC3)n2)cc1O sits?
MET

Strictly below 6 µM: is that where IC50 of O=C(NC1CCOCC1)c1cc(CN[C@@H]2C[C@H]2c2ccc(F)cc2)nc(-c2ccc(N3CCOCC3)cc2)n1 [Example 246, hydrochloride] sits?
NOT MET

Strictly below 6 µM: is that where IC50 of CS(=O)(=O)N1CCN(C(=O)c2cc(CCCN[C@@H]3C[C@H]3c3ccc(F)cc3)nc(-c3ccc(-n4cccn4)cc3)n2)CC1 sits?
MET

Strictly below 6 µM: is that where IC50 of COc1cc(F)c(-c2c(O)cc(N3CCC(N)CC3)nc2-c2ccc(C#N)c(F)c2)cc1F [Example 41, hydrochloride] sits?
NOT MET

###

Target entity: voltage-gated potassium ion channel hERG (Homo sapiens (Human), UniProt Q12809)
Sequence (Q12809 whole entry): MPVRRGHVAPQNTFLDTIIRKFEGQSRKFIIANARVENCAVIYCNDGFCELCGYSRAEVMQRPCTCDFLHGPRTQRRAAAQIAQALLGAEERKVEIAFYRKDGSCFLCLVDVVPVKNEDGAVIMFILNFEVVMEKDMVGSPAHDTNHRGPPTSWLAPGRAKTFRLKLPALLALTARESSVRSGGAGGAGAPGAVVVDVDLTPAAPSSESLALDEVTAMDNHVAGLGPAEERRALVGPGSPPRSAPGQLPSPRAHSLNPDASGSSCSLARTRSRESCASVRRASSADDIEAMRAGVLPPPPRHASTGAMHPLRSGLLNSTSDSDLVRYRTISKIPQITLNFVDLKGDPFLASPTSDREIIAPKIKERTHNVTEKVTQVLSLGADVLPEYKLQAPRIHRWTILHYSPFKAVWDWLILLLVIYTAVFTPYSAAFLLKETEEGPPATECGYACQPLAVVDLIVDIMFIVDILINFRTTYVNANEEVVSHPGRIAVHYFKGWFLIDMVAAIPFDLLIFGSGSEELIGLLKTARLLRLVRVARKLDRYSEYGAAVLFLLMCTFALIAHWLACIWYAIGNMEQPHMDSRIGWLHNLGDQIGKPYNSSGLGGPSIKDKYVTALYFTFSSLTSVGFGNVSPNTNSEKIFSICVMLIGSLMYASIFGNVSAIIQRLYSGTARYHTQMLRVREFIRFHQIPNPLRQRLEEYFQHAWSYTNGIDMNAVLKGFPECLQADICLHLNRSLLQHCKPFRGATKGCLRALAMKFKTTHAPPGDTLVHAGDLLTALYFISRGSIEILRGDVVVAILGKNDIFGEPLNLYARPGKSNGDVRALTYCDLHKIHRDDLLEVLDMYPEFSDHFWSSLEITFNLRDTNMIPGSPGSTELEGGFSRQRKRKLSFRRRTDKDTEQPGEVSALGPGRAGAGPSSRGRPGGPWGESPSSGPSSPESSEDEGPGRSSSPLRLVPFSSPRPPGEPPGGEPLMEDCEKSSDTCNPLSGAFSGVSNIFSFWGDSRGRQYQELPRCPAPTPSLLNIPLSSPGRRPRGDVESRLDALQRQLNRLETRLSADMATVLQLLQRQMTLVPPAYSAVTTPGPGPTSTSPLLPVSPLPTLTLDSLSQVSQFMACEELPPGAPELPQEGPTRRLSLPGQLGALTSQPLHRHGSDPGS
Assay name: hERG inhibition test (manual patch-clamp)
Consider the following compounds; for each one, report its pIC50.
Answers are plain numbers, as −log10 of the molar value.

CS(=O)(=O)N1CCN(C(=O)c2cc(CCN[C@@H]3C[C@H]3c3ccc(F)cc3)nc(-c3ccc(-n4cccn4)cc3)n2)CC1 [Example 12] :: 5.33

// switching to the query compound
Form field: reported pIC50 of COc1ccc(-c2c(OC(C)C)cc(N3CCC(N)CC3)nc2-c2ccc(C#N)c(F)c2)cc1O [Example 104]
5.17

###

Assay name: Rat PK test (IV and PO)
Run conditions: male, SD, rat, plasma
Structures can show the parent of a compound that is named as a salt.
Measured endpoint: AUC(0-inf) (ng·h/mL)
Give bare numbers, in ng·h/mL.

Below, each entry is followed by its recorded AUC(0-inf) result.
COc1ccc(-c2c(OC)cc(N3CCC(N)CC3)nc2-c2ccc(C#N)c(F)c2)cc1O :: 208
O=C(NC1CCOCC1)c1cc(CN[C@@H]2C[C@H]2c2ccc(F)cc2)nc(-c2ccc(N3CCOCC3)cc2)n1 [Example 246, hydrochloride] :: 265
Cc1noc2cc(-c3c(-c4ccc(C#N)c(F)c4)nc(N4CCC(N)CC4)n4ccnc34)c(F)cc12 :: 323

Consider the following items and state reported AUC(0-inf) for each.
1. COc1ccc(-c2c(-c3ccc(C#N)c(F)c3)nc(N3CCC(N)CC3)n(C)c2=O)cc1F [(CC90011), reference compound]
2. COc1ccc(-c2cnc(N3CCC(N)CC3)c(C#N)c2-c2ccc(C#N)c(F)c2)cc1O [Example 66, hydrochloride]

[132, 227]
